Biological target: Neuropeptides B/W receptor type 1 (Homo sapiens) (UniProt P48145)
Sequence (P48145 whole entry, looked up): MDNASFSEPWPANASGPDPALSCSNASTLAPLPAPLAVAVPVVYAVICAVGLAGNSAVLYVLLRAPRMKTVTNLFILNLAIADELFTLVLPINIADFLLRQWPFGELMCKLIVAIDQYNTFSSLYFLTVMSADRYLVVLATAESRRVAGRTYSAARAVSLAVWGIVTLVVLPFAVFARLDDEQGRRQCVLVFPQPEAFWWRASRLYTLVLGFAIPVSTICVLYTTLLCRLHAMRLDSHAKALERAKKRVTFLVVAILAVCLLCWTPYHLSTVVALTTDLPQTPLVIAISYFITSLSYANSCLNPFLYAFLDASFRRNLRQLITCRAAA
Assay: GPR7 receptor antagonists, primary screen, cell-based, fluorescence, single concentration (AID 1861);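 further: cells stimulated with the agonist NPW; 0% = agonist with vehicle and 100% = vehicle without agonist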
Conditions: GPR7-expressing cells, fluorescence antagonist assay; at 4.4 µM; active compounds read high
Out of some 290,000 compounds screened, about 3,100 (1.1%) were called active. Shown is part of a subset that was picked to be rich in actives.
measure.name: inhibition (%)
Give the value in % but do not write % after it.

compound | experimental.target | readout.number
COc1ccc(C(=O)NC(C)c2nccs2)cc1OC1CCN(C(C)C)CC1 (configuration not stated) | Neuropeptides B/W receptor type 1 (Homo sapiens) (UniProt P48145) | -9.73

Entry under review: COc1ccc(S(=O)(=O)Nc2cccnc2)c(Cl)c1Cl . Reported inhibition?
4.69

Given the compound CN(CC(=O)Nc1ccccc1C(F)(F)F)C(=O)Cc1ccccc1F , what is its reported inhibition?
-10.8

inhibition lookup needed for O=S(=O)(Nc1ccccn1)c1ccc(Oc2ccccc2)cc1 , thanks.
-3.88
